Data provenance: paper PMC11636628

biological target: rat CB1 (Rattus norvegicus, UniProt P20272); assay: thallium flux, HEK/GIRK cells; format: cell-based
Sequence (P20272 whole entry): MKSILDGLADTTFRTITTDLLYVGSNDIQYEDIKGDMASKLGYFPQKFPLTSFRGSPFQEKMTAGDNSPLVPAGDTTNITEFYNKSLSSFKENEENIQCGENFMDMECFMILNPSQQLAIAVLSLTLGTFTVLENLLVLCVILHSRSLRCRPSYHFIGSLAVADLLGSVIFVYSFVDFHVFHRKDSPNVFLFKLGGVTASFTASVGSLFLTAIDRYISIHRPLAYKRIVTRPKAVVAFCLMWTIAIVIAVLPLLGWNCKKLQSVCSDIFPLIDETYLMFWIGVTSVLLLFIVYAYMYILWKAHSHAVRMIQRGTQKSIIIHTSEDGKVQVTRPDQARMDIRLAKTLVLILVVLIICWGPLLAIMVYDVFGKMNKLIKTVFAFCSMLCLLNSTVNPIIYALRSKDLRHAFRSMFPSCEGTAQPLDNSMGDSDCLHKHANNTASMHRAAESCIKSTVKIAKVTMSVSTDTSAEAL
readout_label: EC50 (nM)
Answers are plain numbers, in nM.

Inquiry: Supply recorded EC50 for CCCCC/C=C\C/C=C\C/C=C\C/C=C\CCCC(=O)NCCCl [ACEA] here.
Reply text: 20

* * *

molecular target: rat CB2 (Rattus norvegicus)
Sequence (Q9QZN9 whole entry): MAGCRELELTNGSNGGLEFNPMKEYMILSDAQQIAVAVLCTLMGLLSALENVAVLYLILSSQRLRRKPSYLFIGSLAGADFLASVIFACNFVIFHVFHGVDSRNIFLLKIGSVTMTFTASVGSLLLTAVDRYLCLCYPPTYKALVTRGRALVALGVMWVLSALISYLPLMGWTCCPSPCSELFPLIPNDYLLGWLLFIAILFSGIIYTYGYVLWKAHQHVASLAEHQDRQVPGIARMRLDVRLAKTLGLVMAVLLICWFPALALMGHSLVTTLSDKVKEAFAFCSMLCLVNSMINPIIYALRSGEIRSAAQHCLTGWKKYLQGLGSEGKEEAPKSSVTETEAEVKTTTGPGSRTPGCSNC
readout_label: IC50 (nM)
Give bare numbers, in nM.

Inquiry: Supply recorded IC50 for COc1ccc(C(=O)c2c(C)n(CCN3CCOCC3)c3cc(I)ccc23)cc1 [AM630] here.
Reply text: 72.4

* * *

target: human CB2 (Homo sapiens, UniProt P34972); assay: thallium flux, HEK/GIRK cells
Sequence (P34972 whole entry): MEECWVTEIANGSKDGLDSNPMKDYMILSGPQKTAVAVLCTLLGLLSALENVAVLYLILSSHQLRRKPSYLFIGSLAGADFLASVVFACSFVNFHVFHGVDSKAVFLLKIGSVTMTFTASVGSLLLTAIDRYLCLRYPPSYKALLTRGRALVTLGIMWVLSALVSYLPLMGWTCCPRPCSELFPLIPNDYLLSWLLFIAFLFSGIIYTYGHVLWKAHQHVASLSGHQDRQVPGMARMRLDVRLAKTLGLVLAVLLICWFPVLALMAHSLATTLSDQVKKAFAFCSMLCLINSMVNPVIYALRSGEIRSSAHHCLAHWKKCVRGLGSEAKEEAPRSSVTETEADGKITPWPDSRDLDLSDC
Field: pEC50. Provide a value for each of the compounds that follow.
Numbers only, as −log10 of the molar value.

INSERT INTO results (compound, readout_label, data_value) VALUES
  ('CCCC(C)(C)c1ccc2c(c1)OC(C)(C)[C@@H]1CC=C(C)C[C@@H]21 [JWH133]', 'pEC50', 6.56),
  ('CCCCC/C=C\C/C=C\C/C=C\C/C=C\CCCC(=O)NCCCl [ACEA]', 'pEC50', 5.77);

Please turn your attention to the following entry.
Inquiry: Supply recorded pEC50 for CCCCC/C=C\C/C=C\C/C=C\C/C=C\CCCC(=O)OC(CO)CO [2-AG] here.
Reply text: 6.84

* * *

target: human CB1 (Homo sapiens, UniProt P21554); experiment: thallium flux, HEK/GIRK cells
Sequence (P21554 whole entry): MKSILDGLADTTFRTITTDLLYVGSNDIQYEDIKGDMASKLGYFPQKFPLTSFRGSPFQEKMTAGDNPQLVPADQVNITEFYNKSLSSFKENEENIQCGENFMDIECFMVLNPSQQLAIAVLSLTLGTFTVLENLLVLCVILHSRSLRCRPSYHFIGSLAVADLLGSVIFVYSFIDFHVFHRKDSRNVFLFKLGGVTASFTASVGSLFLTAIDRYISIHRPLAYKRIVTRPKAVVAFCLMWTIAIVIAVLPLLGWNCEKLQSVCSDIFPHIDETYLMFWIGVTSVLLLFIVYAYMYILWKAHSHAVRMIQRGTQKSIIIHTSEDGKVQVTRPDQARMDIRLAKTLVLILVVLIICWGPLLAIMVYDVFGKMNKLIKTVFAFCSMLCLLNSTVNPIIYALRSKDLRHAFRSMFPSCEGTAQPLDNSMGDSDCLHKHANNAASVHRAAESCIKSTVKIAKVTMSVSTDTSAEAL
readout_label: pEC50
One number for each entry, as −log10 of the molar value.

INSERT INTO results (compound, data_value) VALUES
  ('CCCCC/C=C\C/C=C\C/C=C\C/C=C\CCCC(=O)NCCCl [ACEA]', 7.22);

Please turn your attention to the following entry.
Inquiry: Supply recorded pEC50 for CCCC(C)(C)c1ccc2c(c1)OC(C)(C)[C@@H]1CC=C(C)C[C@@H]21 [JWH133] here.
Reply text: 5.91

* * *

target: UniProtKB P20272; experiment: PI hydrolysis, [3H]inositol phosphate chromatography, HEK/Gqi9 cells; type: cell-based
readout_label: pEC50
Numbers only, as −log10 of the molar value.

Inquiry: Supply recorded pEC50 for Cc1c(Br)cn(Cc2ccc(F)cc2)c(=O)c1NC(=O)C1CCCCCC1 [EC21a] here.
Reply text: 5.77
